TARGET_SYSTEM: UniProt:Q9KWR5
Sequence (Q9KWR5 entry or part of it): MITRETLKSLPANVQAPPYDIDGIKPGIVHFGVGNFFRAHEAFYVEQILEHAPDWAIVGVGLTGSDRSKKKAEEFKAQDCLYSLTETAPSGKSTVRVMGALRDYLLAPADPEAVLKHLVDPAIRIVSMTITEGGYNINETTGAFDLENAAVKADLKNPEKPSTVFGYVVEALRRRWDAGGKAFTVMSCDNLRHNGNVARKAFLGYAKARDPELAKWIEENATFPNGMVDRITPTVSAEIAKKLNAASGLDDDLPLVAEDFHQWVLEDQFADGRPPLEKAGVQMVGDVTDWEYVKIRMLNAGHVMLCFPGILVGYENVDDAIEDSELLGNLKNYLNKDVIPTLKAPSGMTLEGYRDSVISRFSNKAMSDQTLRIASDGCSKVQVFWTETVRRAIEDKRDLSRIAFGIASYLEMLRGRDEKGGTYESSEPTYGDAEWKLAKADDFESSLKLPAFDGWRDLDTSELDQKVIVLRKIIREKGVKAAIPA
PROTOCOL_DETAILS: SLDH activity: substrate specificity
Assay type: biochemical, Gluconobacter oxydans G624
STUDY_CONDITIONS: glycine/NaOH buffer pH 10.1, coenzyme NADP+
RESULT_TYPE: Use as substrate by SLDH (in words)

{"columns": ["MOLECULE", "RESULT_TYPE", "REPORTED_VALUE"],
 "data": [
  ["OC[C@@H](O)[C@@H](O)[C@@H](O)CO [ribitol]", "Use as substrate by SLDH (in words)", "no action"],
  ["OCC(O)CO [glycerol]", "Use as substrate by SLDH (in words)", "no action"],
  ["OC[C@@H](O)C(O)[C@H](O)CO [arabitol]", "Use as substrate by SLDH (in words)", "could utilize"],
  ["OC[C@@H](O)[C@@H](O)[C@H](O)[C@H](O)CO [mannitol]", "Use as substrate by SLDH (in words)", "could utilize"],
  ["OC[C@@H](O)[C@H](O)[C@@H](O)CO [xylitol]", "Use as substrate by SLDH (in words)", "no action"],
  ["O[C@H]1[C@H](O)[C@@H](O)[C@H](O)[C@@H](O)[C@H]1O [inositol]", "Use as substrate by SLDH (in words)", "no action"]
]}

Recorded values, source patent US6825018B1.
